The entries below come with measured pIC50 values attached.
Molecular target: BACE1 (Homo sapiens, UniProt P56817)
Sequence (P56817 46-501, species assumed): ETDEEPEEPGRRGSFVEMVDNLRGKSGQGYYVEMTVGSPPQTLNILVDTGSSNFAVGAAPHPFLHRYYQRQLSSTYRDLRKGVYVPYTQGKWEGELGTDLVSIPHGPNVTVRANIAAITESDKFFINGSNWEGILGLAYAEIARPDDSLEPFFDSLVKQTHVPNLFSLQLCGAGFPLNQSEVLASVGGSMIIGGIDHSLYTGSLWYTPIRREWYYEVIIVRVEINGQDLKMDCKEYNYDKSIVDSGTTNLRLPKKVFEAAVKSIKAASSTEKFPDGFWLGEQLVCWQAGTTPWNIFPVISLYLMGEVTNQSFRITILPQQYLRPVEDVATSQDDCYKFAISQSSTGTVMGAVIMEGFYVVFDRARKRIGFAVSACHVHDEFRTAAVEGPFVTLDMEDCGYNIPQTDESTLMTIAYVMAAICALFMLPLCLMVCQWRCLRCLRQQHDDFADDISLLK
Assay: In Vitro BACE Cell-based Assay (HEK cell assay): Aβ40 in conditioned medium of cells stably expressing Amyloid Precursor Protein, sandwich ELISA
Details: HEK cells; read-out: HEK cell assay
Protocol: In Vitro BACE Cell-based Assay The cell-based assay measures inhibition or reduction of Aβ40 in conditioned medium of test compound treated cells expressing amyloid precursor protein. Cells stably expressing Amyloid Precursor Protein (APP) were plated at a density of 40K cells/well in 96 well plates (Costar). […] After 24 h of incubation with the test compounds the supernatant conditioned media was collected and the Aβ 40 levels were determined using a sandwich ELISA. […]
pIC50: −log10 of the molar value.

{"molecule": "CC(C)(C)COc1cnc2c(c1)[C@]1(COC(N)=N1)c1cc(-c3ccc(F)nc3)ccc1O2 [compound 470]", "tested-target": "BACE1 (Homo sapiens, UniProt P56817)", "pIC50": "> 7.00"}
{"molecule": "CC1(C)CC(c2cc3c(cc2F)Oc2ccc(-c4cncnc4)cc2[C@@]32COC(N)=N2)=CC(=O)O1 [compound 524]", "tested-target": "BACE1 (Homo sapiens, UniProt P56817)", "pIC50": "> 7.00"}
{"molecule": "NC1=N[C@]2(CO1)c1cc(C3=CCOCC3)ccc1Oc1cc(F)c(-c3cccnc3)cc12 [compound 492]", "tested-target": "BACE1 (Homo sapiens, UniProt P56817)", "pIC50": "> 7.00"}
{"molecule": "NC1=N[C@@]2(CO1)c1cc(-c3cncnc3)ccc1Oc1cccnc12 [compound 525]", "tested-target": "BACE1 (Homo sapiens, UniProt P56817)", "pIC50": "< 5.30"}
{"molecule": "CC(C)(C)C#Cc1ccc2c(n1)[C@]1(COC(N)=N1)c1cc(-c3cncnc3)ccc1O2 [compound 526]", "tested-target": "BACE1 (Homo sapiens, UniProt P56817)", "pIC50": "6.00 to 7.00"}
{"molecule": "NC1=N[C@@]2(CO1)c1cc(-c3cccnc3)ccc1Oc1cc(F)c(C3=CCOCC3)cc12 [compound 476]", "tested-target": "BACE1 (Homo sapiens, UniProt P56817)", "pIC50": "> 7.00"}
{"molecule": "COC1CN(c2cnc3c(c2)[C@]2(COC(N)=N2)c2cc(-c4cc(F)ccc4F)ccc2O3)C1 [compound 456]", "tested-target": "BACE1 (Homo sapiens, UniProt P56817)", "pIC50": "> 7.00"}

Let us examine a further case.
Ask: Can you look up the measured pIC50 of CC(C)(C)COc1cnc2c(c1)[C@]1(COC(N)=N1)c1cc(-c3ccccc3)ccc1O2 [compound 469] for me?
Result: 6.00 to 7.00

----------
Target: BACE1 (Homo sapiens)
Assay: In Vitro BACE Cell-based Assay (HEK cell assay): Aβ40 in conditioned medium of cells stably expressing Amyloid Precursor Protein, sandwich ELISA
Conditions: read-out: HEK cell assay
# IC50 values compiled below

Some entries whose results are on file:
{"smiles-structure": "NC1=N[C@@]2(CO1)c1cc(-c3cccnc3)ccc1Oc1ccc(-c3cscn3)cc12", "IC50": "< 100 nM"}
{"smiles-structure": "CC(C)(C)C#Cc1cnc2c(c1)[C@]1(COC(N)=N1)c1cc(-c3cncnc3)ccc1O2", "IC50": "< 100 nM"}
{"smiles-structure": "NC1=N[C@]2(CO1)c1cc(C3=CCOCC3)ccc1Oc1ccc(-c3cccnc3)cc12", "IC50": "< 100 nM"}

Ask: Report IC50 for "CC(=O)c1cccc(-c2ccc3c(c2)[C@@]2(COC(N)=N2)c2cc(OCC(C)(C)C)ccc2O3)c1" please.
Result: 1000 to 5000 nM

----------
Test system: amyloid beta peptide (A-beta) in cerebrospinal fluid and brain
Experiment: In Vivo Inhibition of Beta-Secretase: reduction of A-beta levels in CSF and brain
Conditions: 30 mpk, after 4 hrs, mouse or rat
property-name: percent reduction in brain A-beta levels (%)
Give the number; % is assumed, so skip it.

{"compound": "CC(C)(C)COc1ccc2c(c1)[C@@]1(COC(N)=N1)c1cc(-c3ccncc3)cnc1O2", "tested-target": "amyloid beta peptide (A-beta) in cerebrospinal fluid and brain", "property-name": "percent reduction in brain A-beta levels", "assay-result": 43}
{"compound": "NC1=N[C@@]2(CO1)c1cc(-c3cccnc3F)ccc1Oc1ccc(N3CCOCC3)cc12 [Example 289, 2,2,2-trifluoroacetate]", "tested-target": "amyloid beta peptide (A-beta) in cerebrospinal fluid and brain", "property-name": "percent reduction in brain A-beta levels", "assay-result": 52}
{"compound": "CC(C)(C)C#Cc1cnc2c(c1)[C@]1(COC(N)=N1)c1cc(-c3cccnc3)ccc1O2 [Example 185b]", "tested-target": "amyloid beta peptide (A-beta) in cerebrospinal fluid and brain", "property-name": "percent reduction in brain A-beta levels", "assay-result": 58}
{"compound": "CC1(C)C=C(c2ccc3c(c2)[C@]2(COC(N)=N2)c2cc(-c4cncnc4)ccc2O3)CCO1", "tested-target": "amyloid beta peptide (A-beta) in cerebrospinal fluid and brain", "property-name": "percent reduction in brain A-beta levels", "assay-result": 41}
{"compound": "COC(C)(C)C#Cc1cc(F)c2c(c1)[C@]1(COC(N)=N1)c1cc(-c3cncnc3)ccc1O2", "tested-target": "amyloid beta peptide (A-beta) in cerebrospinal fluid and brain", "property-name": "percent reduction in brain A-beta levels", "assay-result": 63}

Ask: Please state recorded percent reduction in brain A-beta levels (tested on amyloid beta peptide (A-beta) in cerebrospinal fluid and brain) of NC1=NC2(CO1)c1cc(-c3cncnc3)ccc1Oc1c(F)cc(C3=CCOCC3)cc12 (stereo in doubt)
Result: 66

Ask: Reported percent reduction in brain A-beta levels for amyloid beta peptide (A-beta) in cerebrospinal fluid and brain, given "NC1=N[C@]2(CO1)c1cc(C#CC3(O)CCC3)ccc1Oc1ccc(-c3cncnc3)cc12" ?
Result: 8

----------
Target: BACE1 (Homo sapiens, UniProt P56817)
Test: In Vitro BACE Cell-based Assay (HEK cell assay): Aβ40 in conditioned medium of cells stably expressing Amyloid Precursor Protein, sandwich ELISA
Details: Table IV, class symbols; read-out: HEK cell assay
property-name: IC50

The examples below pair each entry with its known result.
{"smiles-structure": "Cc1cc(-c2ccc3c(c2)[C@]2(COC(N)=N2)c2cc(-c4ccc(F)nc4)ccc2O3)on1", "IC50": "0.1 to 1 µM"}
{"smiles-structure": "Cn1cc(-c2ccc3c(c2)[C@]2(COC(N)=N2)c2cc(Br)ccc2O3)cn1", "IC50": "1 to 5 µM"}
{"smiles-structure": "CN(C)CCOc1ccc2c(c1)[C@]1(COC(N)=N1)c1cc(-c3cccnc3)ccc1O2", "IC50": "< 0.1 µM"}

Ask: Notebook: pull reported IC50 for BACE1 (Homo sapiens, UniProt P56817), entry "CC(=O)COc1ccc2c(c1)[C@@]1(COC(N)=N1)c1cc(-c3cccnc3)cnc1O2"
Result: 0.1 to 1 µM

Ask: Checklist item: IC50 tested on BACE1 (Homo sapiens, UniProt P56817), entry "CC(C)(C)C#Cc1cnc2c(c1)[C@]1(COC(N)=N1)c1cc(-c3cncnc3)cc(F)c1O2" , value?
Result: 0.1 to 1 µM

Ask: I'm curious: which IC50 was measured for "NC1=N[C@@]2(CO1)c1cc(Br)ccc1Oc1ncccc12" tested on BACE1 (Homo sapiens, UniProt P56817)?
Result: > 5 µM

Ask: BACE1 (Homo sapiens, UniProt P56817) / IC50 / "CC(C)(C)C#Cc1cc2c(cn1)Oc1ccc(-c3cccnc3)cc1[C@@]21COC(N)=N1" : value?
Result: < 0.1 µM

Ask: GET /values?readout=IC50&system=BACE1 (Homo sapiens, UniProt P56817)&item= "COCC(=O)Nc1ccc2c(c1)[C@@]1(COC(N)=N1)c1cc(-c3ccccc3)ccc1O2"
Result: < 0.1 µM

Ask: Lab request: please report IC50 under test system BACE1 (Homo sapiens, UniProt P56817) for "CC(C)(C)C#Cc1ccc2c(c1)[C@@]1(COC(N)=N1)c1cc(-c3cccnc3)cnc1O2"
Result: < 0.1 µM

Ask: What is its IC50 for BACE1 (Homo sapiens, UniProt P56817)? Entry: "COc1ccc2c(c1)[C@]1(COC(N)=N1)c1cc(-c3cccc4ncccc34)ccc1O2"
Result: 1 to 5 µM

Ask: Lab request: please report IC50 under test system BACE1 (Homo sapiens, UniProt P56817) for "NC1=N[C@]2(CO1)c1ccccc1Oc1ccc(-c3cccc4ncccc34)cc12"
Result: > 5 µM

Ask: Record "NC1=N[C@@]2(CO1)c1cc(-c3cccnc3F)ccc1Oc1ncccc12" : what is its IC50 with BACE1 (Homo sapiens, UniProt P56817)?
Result: 0.1 to 1 µM

Ask: // lookup IC50 | system=BACE1 (Homo sapiens, UniProt P56817) | key= "NC1=N[C@]2(CO1)c1cc(C3=CCSCC3)ccc1Oc1ccc(-c3cncnc3)cc12"
Result: < 0.1 µM

Ask: Under BACE1 (Homo sapiens, UniProt P56817): IC50 value of "CC(C)(C)COc1ccc2c(c1)[C@]1(COC(N)=N1)c1cc(N3CCCCC3)ccc1O2" ?
Result: 0.1 to 1 µM

Ask: So what IC50 did "CC(C)(C)COc1ccc2c(c1)[C@]1(COC(N)=N1)c1cc(N3CCCC3)ccc1O2" get with BACE1 (Homo sapiens, UniProt P56817)?
Result: 1 to 5 µM

Ask: Item: "CC(C)(C)C#Cc1ccc2c(c1)[C@@]1(COC(N)=N1)c1cc(C#CC(C)(C)C)cnc1O2" Test system: BACE1 (Homo sapiens, UniProt P56817) Read-out: IC50 Value: ?
Result: 0.1 to 1 µM
